- target.or.system: human galectin-1 (Gal-1, full length) (Homo sapiens)
- Construct: Gal-1 is a prototype galectin consisting of a single CRD and was used in full length; 6xHis tag with TEV protease site (N, cleaved yes); made in house; host or cells: BL21 Escherichia coli (pET-15b)
- assay.name: Competitive fluorescence polarization assay, Gal-1
- Type: binding
- experimental.conditions: competitive fluorescence polarization; mean ± SD; read-out: Kd Gal-1
Kd values for the compounds below.
observable: Kd (µM)

>  <compound>
CNC(=O)c1cccc(N(C(C)=O)[C@@H]2O[C@H](CO)[C@@H](O[C@@H]3O[C@H](CO)[C@H](O)[C@H](O)[C@H]3O)[C@H](O)[C@H]2O)c1

>  <experimental.result>
440

$$$$
>  <compound>
CC(=O)N(c1ccc(F)cc1)[C@@H]1O[C@H](CO)[C@@H](O[C@@H]2O[C@H](CO)[C@H](O)[C@H](O)[C@H]2O)[C@H](O)[C@H]1O

>  <experimental.result>
320

$$$$
>  <compound>
O=C(O)c1cccc(N(C(=O)c2ccccc2)[C@@H]2O[C@H](CO)[C@@H](O[C@@H]3O[C@H](CO)[C@H](O)[C@H](O)[C@H]3O)[C@H](O)[C@H]2O)c1

>  <experimental.result>
840

$$$$
>  <compound>
CC(=O)N(c1cc(C(=O)O)cc2[nH]ccc12)[C@@H]1O[C@H](CO)[C@@H](O[C@@H]2O[C@H](CO)[C@H](O)[C@H](O)[C@H]2O)[C@H](O)[C@H]1O

>  <experimental.result>
850

$$$$
>  <compound>
CC(=O)N(c1cccc(C(F)(F)F)c1)[C@@H]1O[C@H](CO)[C@@H](O[C@@H]2O[C@H](CO)[C@H](O)[C@H](O)[C@H]2O)[C@H](O)[C@H]1O

>  <experimental.result>
560

$$$$
>  <compound>
C#Cc1cccc(N(C(C)=O)[C@@H]2O[C@H](CO)[C@@H](O[C@@H]3O[C@H](CO)[C@H](O)[C@H](O)[C@H]3O)[C@H](O)[C@H]2O)c1

>  <experimental.result>
1000

$$$$
>  <compound>
CC(=O)N(c1cccc(CO)c1)[C@@H]1O[C@H](CO)[C@@H](O[C@@H]2O[C@H](CO)[C@H](O)[C@H](O)[C@H]2O)[C@H](O)[C@H]1O

>  <experimental.result>
540

$$$$
>  <compound>
CO[C@@H]1O[C@H](CO)[C@@H](O[C@@H]2O[C@H](CO)[C@H](O)[C@H](O)[C@H]2O)[C@H](O)[C@H]1O [β-LacOMe, methyl β-lactoside, reference compound]

>  <experimental.result>
770

$$$$
>  <compound>
CC(=O)N(c1cc(Br)cc(C(=O)O)c1)[C@@H]1O[C@H](CO)[C@@H](O[C@@H]2O[C@H](CO)[C@H](O)[C@H](O)[C@H]2O)[C@H](O)[C@H]1O

>  <experimental.result>
630

$$$$
>  <compound>
CC(=O)N(c1cccc(F)c1)[C@@H]1O[C@H](CO)[C@@H](O[C@@H]2O[C@H](CO)[C@H](O)[C@H](O)[C@H]2O)[C@H](O)[C@H]1O

>  <experimental.result>
360

$$$$
>  <compound>
CC(=O)N(c1ccc2c(c1)OCO2)[C@@H]1O[C@H](CO)[C@@H](O[C@@H]2O[C@H](CO)[C@H](O)[C@H](O)[C@H]2O)[C@H](O)[C@H]1O

>  <experimental.result>
540

$$$$

----------
- target.or.system: human galectin-3C (Gal-3C, C-terminal CRD of galectin-3) (Homo sapiens)
- Construct: only the C-terminal domain was used (Gal-3C); 6xHis tag with TEV protease site (N, cleaved yes); made in house; host or cells: BL21 Escherichia coli (pET-15b)
- Sequence (P17931 118-248 limits assumed): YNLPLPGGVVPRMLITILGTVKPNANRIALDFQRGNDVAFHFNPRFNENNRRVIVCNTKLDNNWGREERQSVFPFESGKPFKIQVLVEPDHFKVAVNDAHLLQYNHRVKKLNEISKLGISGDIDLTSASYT
- assay.name: Competitive fluorescence polarization assay, Gal-3C
- Type: binding
- experimental.conditions: CSV supplement, unrounded mean; read-out: Gal3C_Kd_mean_uM
# Kd listing for each entry below
observable: Kd (µM)

>  <smiles.code>
CC(C)C(=O)N(c1cccc(C(=O)O)c1)[C@@H]1O[C@H](CO)[C@@H](O[C@@H]2O[C@H](CO)[C@H](O)[C@H](O)[C@H]2O)[C@H](O)[C@H]1O

>  <experimental.result>
39.5

$$$$
>  <smiles.code>
CC(=O)N(c1cc(O)cc(C(=O)O)c1)[C@@H]1O[C@H](CO)[C@@H](O[C@@H]2O[C@H](CO)[C@H](O)[C@H](O)[C@H]2O)[C@H](O)[C@H]1O

>  <experimental.result>
11.4

$$$$
>  <smiles.code>
COc1cc(N(C(C)=O)[C@@H]2O[C@H](CO)[C@@H](O[C@@H]3O[C@H](CO)[C@H](O)[C@H](O)[C@H]3O)[C@H](O)[C@H]2O)cc(OC)c1OC

>  <experimental.result>
76.2

$$$$
>  <smiles.code>
CC(=O)N(c1ccc2c(c1)OCO2)[C@@H]1O[C@H](CO)[C@@H](O[C@@H]2O[C@H](CO)[C@H](O)[C@H](O)[C@H]2O)[C@H](O)[C@H]1O

>  <experimental.result>
115

$$$$
>  <smiles.code>
CC(=O)N(c1ccc(C)cc1)[C@@H]1O[C@H](CO)[C@@H](O[C@@H]2O[C@H](CO)[C@H](O)[C@H](O)[C@H]2O)[C@H](O)[C@H]1O

>  <experimental.result>
133

$$$$
>  <smiles.code>
CC(=O)N(c1cccc(-c2nnn[nH]2)c1)[C@@H]1O[C@H](CO)[C@@H](O[C@@H]2O[C@H](CO)[C@H](O)[C@H](O)[C@H]2O)[C@H](O)[C@H]1O

>  <experimental.result>
48.8

$$$$
>  <smiles.code>
CC(=O)N(c1cccc(CO)c1)[C@@H]1O[C@H](CO)[C@@H](O[C@@H]2O[C@H](CO)[C@H](O)[C@H](O)[C@H]2O)[C@H](O)[C@H]1O

>  <experimental.result>
106

$$$$
>  <smiles.code>
COc1ccc(N(C(C)=O)[C@@H]2O[C@H](CO)[C@@H](O[C@@H]3O[C@H](CO)[C@H](O)[C@H](O)[C@H]3O)[C@H](O)[C@H]2O)cc1OC

>  <experimental.result>
88.9

$$$$
>  <smiles.code>
CC(=O)N(c1cc(Br)cc(C(=O)O)c1)[C@@H]1O[C@H](CO)[C@@H](O[C@@H]2O[C@H](CO)[C@H](O)[C@H](O)[C@H]2O)[C@H](O)[C@H]1O

>  <experimental.result>
60.2

$$$$
>  <smiles.code>
CC(=O)N(c1ccccc1)[C@@H]1O[C@H](CO)[C@@H](O[C@@H]2O[C@H](CO)[C@H](O)[C@H](O)[C@H]2O)[C@H](O)[C@H]1O

>  <experimental.result>
106

$$$$

----------
- target.or.system: human galectin-1 (Gal-1, full length) (Homo sapiens, UniProt P09382)
- Construct: Gal-1 is a prototype galectin consisting of a single CRD and was used in full length; 6xHis tag with TEV protease site (N, cleaved yes); made in house; host or cells: BL21 Escherichia coli (pET-15b)
- Sequence (P09382 2-135): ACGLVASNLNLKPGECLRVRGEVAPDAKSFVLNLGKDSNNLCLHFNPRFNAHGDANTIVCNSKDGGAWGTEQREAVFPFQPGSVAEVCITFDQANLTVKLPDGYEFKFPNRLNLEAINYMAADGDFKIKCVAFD
- assay.name: Competitive fluorescence polarization assay, Gal-1
- Type: binding
- experimental.conditions: CSV supplement, unrounded mean; read-out: Gal1_IC50_mean_uM
observable: log10 IC50 (log10 of the value in µM)

>  <smiles.code>
CC(=O)N(c1ccc(I)cc1)[C@@H]1O[C@H](CO)[C@@H](O[C@@H]2O[C@H](CO)[C@H](O)[C@H](O)[C@H]2O)[C@H](O)[C@H]1O

>  <log10 IC50>
2.86

$$$$
>  <smiles.code>
CC(=O)N(c1ccc(F)c(F)c1)[C@@H]1O[C@H](CO)[C@@H](O[C@@H]2O[C@H](CO)[C@H](O)[C@H](O)[C@H]2O)[C@H](O)[C@H]1O

>  <log10 IC50>
2.78

$$$$
>  <smiles.code>
CC(=O)N(c1cc(C(=O)O)cc2[nH]ccc12)[C@@H]1O[C@H](CO)[C@@H](S[C@@H]2O[C@H](CO)[C@H](O)[C@H](n3cc(-c4cccc(F)c4)nn3)[C@H]2O)[C@H](O)[C@H]1O

>  <log10 IC50>
0.64

$$$$
>  <smiles.code>
CC(=O)N(c1ccc2c(c1)OCO2)[C@@H]1O[C@H](CO)[C@@H](O[C@@H]2O[C@H](CO)[C@H](O)[C@H](O)[C@H]2O)[C@H](O)[C@H]1O

>  <log10 IC50>
2.99

$$$$
>  <smiles.code>
CC(=O)N(c1ccccc1)[C@@H]1O[C@H](CO)[C@@H](O[C@@H]2O[C@H](CO)[C@H](O)[C@H](O)[C@H]2O)[C@H](O)[C@H]1O

>  <log10 IC50>
2.96

$$$$
>  <smiles.code>
CC(=O)N(c1ccccc1F)[C@@H]1O[C@H](CO)[C@@H](O[C@@H]2O[C@H](CO)[C@H](O)[C@H](O)[C@H]2O)[C@H](O)[C@H]1O

>  <log10 IC50>
2.97

$$$$
>  <smiles.code>
CC(=O)N(c1cc(O)cc(C(=O)O)c1)[C@@H]1O[C@H](CO)[C@@H](O[C@@H]2O[C@H](CO)[C@H](O)[C@H](O)[C@H]2O)[C@H](O)[C@H]1O

>  <log10 IC50>
3.09

$$$$
>  <smiles.code>
O=C(O)c1cccc(N(C(=O)Cc2ccccc2)[C@@H]2O[C@H](CO)[C@@H](O[C@@H]3O[C@H](CO)[C@H](O)[C@H](O)[C@H]3O)[C@H](O)[C@H]2O)c1

>  <log10 IC50>
3.33

$$$$
>  <smiles.code>
CNC(=O)c1cccc(N(C(C)=O)[C@@H]2O[C@H](CO)[C@@H](O[C@@H]3O[C@H](CO)[C@H](O)[C@H](O)[C@H]3O)[C@H](O)[C@H]2O)c1

>  <log10 IC50>
2.82

$$$$
>  <smiles.code>
CC(=O)N(c1cc(C(=O)O)cc2[nH]ccc12)[C@@H]1O[C@H](CO)[C@@H](O[C@@H]2O[C@H](CO)[C@H](O)[C@H](O)[C@H]2O)[C@H](O)[C@H]1O

>  <log10 IC50>
3.18

$$$$
>  <smiles.code>
CC(=O)N(c1cccc(F)c1)[C@@H]1O[C@H](CO)[C@@H](O[C@@H]2O[C@H](CO)[C@H](O)[C@H](O)[C@H]2O)[C@H](O)[C@H]1O

>  <log10 IC50>
2.83

$$$$
